- system.tested: EGFR (form used in the assay not stated) (human, UniProt P00533 25-645, limits assumed)
- assay.procedure: ELISA, NEM conjugate, 10 nM
Label rule, in plain words: binding relative to P54AR4-83v2 parent of 0.9 ratio and up is 1, under 0.9 ratio is -1.

binder	label.value
P54AR4-83v2 T13C, NEM conjugate (designed binder, not shown: small tags and cut ends, N-ethyl maleimide (NEM) on Cys 13) LPAPKNLVVSEVCEDSARLSWDDPWAFYESFLIQYQESEKVGEAIVLTVPGSERSYDLTGLKPGTEYTVSIYGVHNVYKDTNMRGLPLSAIFTT	-1
P54AR4-83v2 E14C, NEM conjugate (designed binder, not shown: small tags and cut ends, N-ethyl maleimide (NEM) on Cys 14) LPAPKNLVVSEVTCDSARLSWDDPWAFYESFLIQYQESEKVGEAIVLTVPGSERSYDLTGLKPGTEYTVSIYGVHNVYKDTNMRGLPLSAIFTT	1
P54AR4-83v2 Y28C, NEM conjugate (designed binder, not shown: small tags and cut ends, N-ethyl maleimide (NEM) on Cys 28) LPAPKNLVVSEVTEDSARLSWDDPWAFCESFLIQYQESEKVGEAIVLTVPGSERSYDLTGLKPGTEYTVSIYGVHNVYKDTNMRGLPLSAIFTT	-1
P54AR4-83v2 S70C, NEM conjugate (designed binder, not shown: small tags and cut ends, N-ethyl maleimide (NEM) on Cys 70, also called 570C) LPAPKNLVVSEVTEDSARLSWDDPWAFYESFLIQYQESEKVGEAIVLTVPGSERSYDLTGLKPGTEYTVCIYGVHNVYKDTNMRGLPLSAIFTT	-1
P54AR4-83v2 D23C, NEM conjugate (designed binder, not shown: small tags and cut ends, N-ethyl maleimide (NEM) on Cys 23) LPAPKNLVVSEVTEDSARLSWDCPWAFYESFLIQYQESEKVGEAIVLTVPGSERSYDLTGLKPGTEYTVSIYGVHNVYKDTNMRGLPLSAIFTT	-1

Then there is this binder:
# check: binding relative to P54AR4-83v2 parent of P54AR4-83v2 G42C, NEM conjugate (designed binder, not shown: small tags and cut ends, N-ethyl maleimide (NEM) on Cys 42) LPAPKNLVVSEVTEDSARLSWDDPWAFYESFLIQYQESEKVCEAIVLTVPGSERSYDLTGLKPGTEYTVSIYGVHNVYKDTNMRGLPLSAIFTT is greater than or equal to 0.9 ratio -1

Origin of measurements: patent US20210301025A1
